MEASUREMENT NAME: melting point (°C)

{"columns": ["COMPOUND", "melting point / °C"],
 "data": [
  ["O=C(c1ccc2nc[nH]c(=O)c2c1)c1ncc2ccccn12 [Compound No. 3]", 289],
  ["CCCn1c(C)nc2ccc(C(=O)c3nc(-c4cccc(C(=O)O)c4)c4ccccn34)cc2c1=O [Compound No. 53]", 305],
  ["CCCn1c(=O)[nH]c2ccc(C(=O)c3nc(NS(C)(=O)=O)c4ccccn34)cc2c1=O [Compound No. 13]", 334]
]}
